- measurement.setup: rat; liver microsomes; pH 7.4; 15.0 min; 1.0 µM
reported.endpoint: half-life (min)
Output spec: scalar in min, unitless text.

Known results for compounds:
| structure | half-life (min) |
| --- | --- |
| Cc1ccc(OCCn2c(CCNC(=O)C3CCCCC3)nc3ccccc32)cc1 | 1.6 |
| CC(=O)Nc1ccc(C(=O)Nc2ccc3c(c2)N(C2CCCC2)C(=O)c2ccccc2S3)cc1 | 2.21 |
| O=C1Nc2ccccc2/C1=C\c1cc(Br)c(O)c(Br)c1 | 26 |
| CCOC(=O)c1ccc(-n2cnc3cc(C(=O)N4CCCCC4)ccc32)cc1 | 1.7 |
| CCC1=Nc2cc(C(=O)NCCCOC)ccc2Sc2ccc(Br)cc21 | 5.46 |

Problem: State the recorded half-life for this entry: FC1(F)CCN(c2nc(-c3ccncc3)nc3ccccc23)CC1
Result: 9.4

Problem: State the recorded half-life for this entry: COc1ccc(-n2nc(C3CCN([S+](=O)([O-])c4c(C)noc4C)CC3)[nH]c2=O)cc1
Result: 22.9

Problem: State the recorded half-life for this entry: O=C(c1ccc2c(c1)ncn2-c1cccc(Cl)c1)N1CCCCC1
Result: 5.83

Problem: State the recorded half-life for this entry: COC(C)(C)CCn1nc(Nc2c(C)cccc2C)c2cnc(Nc3ccc(OCCN4CCCC4)c(F)c3)nc21
Result: 3.28
